Test system: UACC-62 melanoma
Assay: NCI-60 one-dose screen, 48 h (100 = growth as untreated, 0 = no growth, -100 = all killed)
Conditions: 10 µM unless noted
Description: Growth inhibition of the UACC-62 human tumor cell line is measured as a screen for anti-cancer activity. Cells are grown in 96 well plates and exposed to the test compound for 48 hours. Compounds are tested at a single concentration, which is 10^-5 M for most compounds. The reported endpoint is percent growth (GI% or GIPRCNT), where numbers from 0 - 100% represent growth inhibition, and numbers from -100% - 0 represent cell death. For example, a value of 40 represents 60% growth inhibition. […]
This is part of a sample that, as a whole, favours compounds with a hit. Of some 83,000 tested, about 20% had one in any assay. Active and inactive are the calls of the source. Rule for the calls: active = growth percent below 10; inactive = the rest.
Provide the reported growth of each item.

Q. Complete the entry with growth for COc1ccc(/C=C/c2nc3ccccc3nc2Nc2cccc(C)c2)cc1
A. 83.4% (inactive)

Q. Complete the entry with growth for COc1ccc(-c2nc3cc(C)ccc3n2CC(=O)N=Nc2c(O)[nH]c3ccccc23)cc1
A. -37.2% (active)

Q. Complete the entry with growth for Nc1nc(-c2ccccc2)c(N=Nc2ccc([N+](=O)[O-])cc2Cl)s1
A. 57.8% (inactive)

Q. Complete the entry with growth for C#CCOc1ccc(/C=N/Nc2nc(-c3cc4cc(Br)ccc4oc3=O)cs2)cc1OC
A. 57.5% (inactive)

Q. Complete the entry with growth for CC1(c2cc3cc(Br)ccc3oc2=O)NC(=O)c2c(/C=C/C(=O)OC3CC4CCC3(C)C4(C)C)cccc2N1 (stereo not given)
A. 79.8% (inactive)

Q. Complete the entry with growth for Cn1cc(-c2nnc(N)nc2-c2c[nH]c3ccc(Br)cc23)c2cc(Br)cnc21
A. 46.3% (inactive)

Q. Complete the entry with growth for COc1ccc(C(=O)/C=C/c2cccc(Cl)c2)cc1S(N)(=O)=O
A. -3.37% (active)

Q. Complete the entry with growth for O=C(N1c2ccccc2Sc2ccccc21)n1ccc2cccnc21
A. 47.5% (inactive)

Q. Complete the entry with growth for Cc1ccc(NC(=O)CN2CCN(c3ncnc4c3cnn4-c3ccccc3)CC2)cc1
A. 69.3% (inactive)

Q. Complete the entry with growth for O=c1[nH]c2ccc(Cl)cc2cc1CSc1nccc(-c2ccc(Cl)cc2)n1
A. 31.8% (inactive)

Q. Complete the entry with growth for COc1ccc(/C=C/c2n(Cc3ccc4ccccc4c3)c3ccccc3[n+]2Cc2ccc3ccccc3c2)cc1
A. -90.5% (active)

Q. Complete the entry with growth for Cc1ccc(C(=O)CSc2nc3ccc(C)cc3c(=O)n2-c2ccc(F)cc2)cc1
A. 86.1% (inactive)

Q. Complete the entry with growth for Cn1nc(C(F)(F)F)cc1-c1cc(Cl)c(COc2ccc(Cl)cc2)c(-c2ccc(Cl)c(C(F)(F)F)c2)c1O
A. -86.1% (active)

Q. Complete the entry with growth for CC(=O)Nc1ccc(-c2nc3cc(-c4ccc(O)cc4)ccc3n2C)cc1
A. 51.4% (inactive)

Q. Complete the entry with growth for Nc1nc(-c2ccccc2)c(N=Nc2ccc(Cl)cc2[N+](=O)[O-])s1
A. 77.3% (inactive)

Q. Complete the entry with growth for CCCCSc1nc(Nc2ccc(C(C)=O)cc2)c(C#N)c(-c2ccc(OC)cc2)n1
A. 96.2% (inactive)

Q. Complete the entry with growth for O=C1Nc2cc(Cl)ccc2/C1=C/c1cccc(OCc2ccccn2)c1
A. 5.17% (active)

Q. Complete the entry with growth for CN1CCN(c2ccc(C(=O)/C=C/c3cc(C(F)(F)F)cc(C(F)(F)F)c3)cc2)CC1
A. -85.4% (active)

Q. Complete the entry with growth for CC(=O)Nc1cccc(-c2nc3cc(-c4ccc(O)cc4)ccc3n2C)c1
A. 15.7% (inactive)

Q. Complete the entry with growth for NS(=O)(=O)c1ccc(-n2cc(-c3cccc(NC(=O)c4cc(N5CCOCC5)cc(C(F)(F)F)c4)c3)nn2)cc1
A. 41.1% (inactive)

* * *

system: OVCAR-5 ovarian; assay: NCI-60 one-dose screen, 48 h (100 = growth as untreated, 0 = no growth, -100 = all killed); settings: 10 µM unless noted
This is part of a sample that, as a whole, favours compounds with a hit. Of some 83,000 tested, about 20% had one in any assay.
Provide the reported growth of each item.
Reply numerically in %, unit not repeated.

Q. Complete the entry with growth for COc1cc2c(c(OC)c1OC)C(=O)CC(c1cccc(NC(=O)[C@@H](N)CC(C)C)c1)O2 (some centres undefined)
A. 112

Q. Complete the entry with growth for COc1ccc2[nH]cc(-c3nnc(N)nc3-c3c[nH]c4ncc(Br)cc34)c2c1
A. 97.9

Q. Complete the entry with growth for S=C(Nc1ccccc1)Nc1ccc(OCc2nc3ccccc3[nH]2)cc1
A. 66.3

Q. Complete the entry with growth for CC1(C)CC[C@]2(C(=O)O)CC[C@]3(C)C(=CCC4[C@@]5(C)C[C@@H](O)[C@@H]6OC(c7ccco7)OC[C@@]6(C)C5CC[C@]43C)C2C1 (some centres undefined)
A. 65.4

* * *

test system: SNB-75 CNS; test: NCI-60 one-dose screen, 48 h (100 = growth as untreated, 0 = no growth, -100 = all killed); conditions: 10 µM unless noted
Compounds without any hit were thinned out: in the full panel of roughly 83,000, 20% have a hit.
measure name: growth (%)
Reply numerically in %, unit not repeated.

Q. Complete the entry with growth for COc1ccc2c(c1)c(-c1cc(N)n3nc(-c4cn(C)c5ccccc45)cc3n1)cn2C
A. -66.3

Q. Complete the entry with growth for CC(=O)Nc1ccc(-n2cnc3cc(-c4ccc(O)cc4)ccc32)cc1C(F)(F)F
A. 8.79

Q. Complete the entry with growth for COc1cc2oc(-c3cccc(C(=O)Nc4ccc(Cl)cc4)c3)cc(=O)c2c(OCCNC(=O)[C@H](CCC(=O)OC(C)(C)C)NC(=O)OC(C)(C)C)c1OC
A. 74.2

Q. Complete the entry with growth for COc1cc(CNC(=O)/C=C/c2ccc3c(c2)OCO3)ccc1OCc1cn(-c2ccc([N+](=O)[O-])cc2)nn1
A. 106

Q. Complete the entry with growth for COc1ccc(C(=O)/C=C/c2ccccc2Cl)cc1S(N)(=O)=O
A. 107

Q. Complete the entry with growth for CSc1ccc(C(=O)Nc2ccc3nnn(/C(C#N)=C/c4ccccn4)c3c2)cc1
A. 55.9

Q. Complete the entry with growth for CN(C)c1nc(NCCNS(=O)(=O)c2ccc(C3=Nc4c(N)nc(N)nc4NC(c4ccc(F)cc4)C3)cc2)nc(Nc2ccc(F)cc2)n1 (stereo not drawn)
A. 58.6

Q. Complete the entry with growth for Cn1cc(-c2nc(N)nnc2-c2c[nH]c3ccc(Br)cc23)c2cc(Br)cnc21
A. -0.672

Q. Complete the entry with growth for CCCCOc1ccc(NC(=O)c2sc3nc(C)ccc3c2N)cc1
A. -17.3

Q. Complete the entry with growth for CCCCCCCCOc1cccc(S(=O)(=O)Nc2ccc(C)cc2C(=O)O)c1
A. 94.9

Q. Complete the entry with growth for O=C(N/N=C/c1ccc(-c2ccc(O)cc2)s1)c1[nH]c2ccc(Br)cc2c1-c1ccccc1
A. -12.7

Q. Complete the entry with growth for COC(=O)/C=C/c1cccc2c1C(=O)NC(C)(c1cc3ccccc3oc1=O)N2 (stereo not drawn)
A. 41.6

Q. Complete the entry with growth for O=C(COc1ccc(NC(=O)Nc2ccc(Cl)cc2)cc1)N/N=C/c1ccccc1
A. -37.4

Q. Complete the entry with growth for O=C(COc1ccc(NC(=O)Nc2ccc(Cl)c(Cl)c2)cc1)N=Nc1c(O)[nH]c2ccccc12
A. -39.5

Q. Complete the entry with growth for C=C1CC[C@@H]2[C@]3(C)COC(c4cn[nH]c4-c4ccc(C)cc4)O[C@@H]3CC[C@@]2(C)[C@@H]1C/C=C1/C(=O)OCC1O (stereo partly drawn)
A. 87.8

Q. Complete the entry with growth for COc1cc(-c2cc(-c3cccc(OCC(=O)O)c3)[nH]c(=O)c2C#N)cc(OC)c1OC
A. 116

Q. Complete the entry with growth for CC1(C)CC[C@]2(C(=O)O)CC[C@]3(C)C(=CCC4[C@@]5(C)C[C@@H](O)[C@@H]6OC(c7ccccc7Br)OC[C@@]6(C)C5CC[C@]43C)C2C1 (stereo partly drawn)
A. 48.1

Q. Complete the entry with growth for CN1CCN(c2ccc3c(c2)nc(NNC(=O)c2ncccn2)c2cccn23)CC1
A. -46.9

* * *

test system: MDA-MB-231 breast; assay: NCI-60 one-dose screen, 48 h; conditions: 10 µM unless noted
The panel holds about 83,000 compounds, 20% with a hit somewhere; the sample as a whole holds those more often. The source made the active and inactive calls. Rule for the calls: active = growth percent below 10; inactive = the rest.
Answer with one of the outcomes given here: True for active, False for inactive

Q. Dear all, I need the recorded test outcome for CN(C)c1nc(NCCNS(=O)(=O)c2ccc(C(=O)/C=C/c3ccc(F)cc3)cc2)nc(Nc2ccc(F)cc2)n1 , thank you.
A. True

Q. Dear all, I need the recorded test outcome for CNS(=O)(=O)c1ccc(Nc2ccc(C(F)(F)F)cc2)c(-c2cn(C)cn2)c1 , thank you.
A. False

Q. Dear all, I need the recorded test outcome for COc1cc2c(c(OC)c1OC)C(=O)CC(c1cccc(NC(=O)c3cccc([N+](=O)[O-])c3)c1)O2 (stereo unspecified) , thank you.
A. False

Q. Dear all, I need the recorded test outcome for CN(C)c1nc(NCCNS(=O)(=O)c2ccc(C3=Nc4c(N)nc(N)nc4NC(c4ccc(C(F)(F)F)cc4)C3)cc2)nc(Nc2ccc(F)cc2)n1 (stereo unspecified) , thank you.
A. True

Q. Dear all, I need the recorded test outcome for C=C1CCC2C3(C)COC(c4ccc(F)cc4)OC3CCC2(C)C1CC(O)C1=CCOC1=O (stereo unspecified) , thank you.
A. False

Q. Dear all, I need the recorded test outcome for O=C(NNc1nc2cc(C(F)(F)F)ccc2n2cccc12)c1cnccn1 , thank you.
A. True

Q. Dear all, I need the recorded test outcome for CC(=O)Nc1ccc(C(=O)NC(=S)Nc2ccc(S(N)(=O)=O)cc2)cc1 , thank you.
A. False

Q. Dear all, I need the recorded test outcome for CCCCCCCCc1ccc(C(=O)Nc2ccc(C)cc2C(=O)O)cc1C , thank you.
A. False

Q. Dear all, I need the recorded test outcome for COc1ccc(-c2nnc3ccc(N/N=C/c4ccc(O)cc4)nn23)cc1 , thank you.
A. False

Q. Dear all, I need the recorded test outcome for Cc1ccc(-c2nnc3ccc(N/N=C/c4ccccc4)nn23)cc1 , thank you.
A. False

Q. Dear all, I need the recorded test outcome for CC(=O)c1c(N)c(C#N)cn1-c1ccc(Cl)cc1Cl , thank you.
A. False

Q. Dear all, I need the recorded test outcome for COc1ccccc1/C=C/C(=O)c1ccc(OC)c(S(N)(=O)=O)c1 , thank you.
A. True

Q. Dear all, I need the recorded test outcome for COCOc1cc2c(=O)c(C)c(C(=O)N[C@@H](Cc3ccccc3)C(O)C(=O)NCc3ccccc3)oc2cc1OC (stereo partly specified) , thank you.
A. False

Q. Dear all, I need the recorded test outcome for CCCSc1nc(NCCc2c[nH]c3ccccc23)c(C#N)c(-c2ccccc2)n1 , thank you.
A. False

Q. Dear all, I need the recorded test outcome for COc1ccc(C(=O)/C=C/c2cccc(Cl)c2Cl)cc1S(N)(=O)=O , thank you.
A. True

Q. Dear all, I need the recorded test outcome for Cn1cc(-c2cc(N)n3nc(-c4cn(C)c5ccc(Cl)cc45)cc3n2)c2ccccc21 , thank you.
A. False

Q. Dear all, I need the recorded test outcome for Cc1nc(Nc2ncc(C(=O)Nc3c(C)cccc3Cl)s2)cc(N2CCN(CCCNC(=O)COc3ccc(C4CCC(=O)NC4=O)cc3)CC2)n1 (stereo unspecified) , thank you.
A. True

Q. Dear all, I need the recorded test outcome for CC12CC[C@@H]3[C@]4(C)COC(c5cn[nH]c5-c5ccc(Cl)cc5)O[C@@H]4CC[C@@]3(C)[C@@H]1CC(C1=CCOC1=O)O2 (stereo partly specified) , thank you.
A. False

Q. Dear all, I need the recorded test outcome for COc1c(F)ccc(C(=O)Nc2ccc3nc(NC(=O)C4CCCN(S(=O)(=O)c5cccc(Cl)c5)C4)sc3c2)c1F (stereo unspecified) , thank you.
A. False

Q. Dear all, I need the recorded test outcome for CN(C)CCOc1ccc(C(=O)C2[C@H](c3ccc(Cl)cc3)[C@@H](c3ccccc3)NC23C(=O)Nc2ccccc23)cc1 (stereo partly specified) , thank you.
A. False

Q. Dear all, I need the recorded test outcome for COc1c(F)ccc(C(=O)Nc2ccc3nc(NC(=O)C4CCCN(S(=O)(=O)c5ccc(Cl)cc5)C4)sc3c2)c1F (stereo unspecified) , thank you.
A. False

Q. Dear all, I need the recorded test outcome for Nc1nnc(-c2c[nH]c3ncc(Br)cc23)c(-c2c[nH]c3ccc(F)cc23)n1 , thank you.
A. False

Q. Dear all, I need the recorded test outcome for O=C1c2c(c3c4cc(F)ccc4oc3c3[nH]c4ccc(Br)cc4c23)C(=O)N1O , thank you.
A. False

Q. Dear all, I need the recorded test outcome for COc1c(F)ccc(C(=O)Nc2ccc3nc(NC(=O)C4CCCN(S(=O)(=O)c5ccc(Br)c(F)c5)C4)sc3c2)c1F (stereo unspecified) , thank you.
A. False

Q. Dear all, I need the recorded test outcome for COc1cc(OC)c2c3nc4cc(C)c(C)cc4nc3n(CCN(C)C)c2c1 , thank you.
A. False

Q. Dear all, I need the recorded test outcome for CC(C)Sc1nc(NCCc2c[nH]c3ccccc23)c(C#N)c(-c2ccc(F)cc2)n1 , thank you.
A. False

Q. Dear all, I need the recorded test outcome for CN(C)CCn1c2ccccc2c2nc3cc4ccccc4cc3nc21 , thank you.
A. True

Q. Dear all, I need the recorded test outcome for O=C(CCN1C(=O)/C(=C/c2ccc(F)cc2)SC1=S)N1CCOCC1 , thank you.
A. False

Q. Dear all, I need the recorded test outcome for COc1c(F)ccc(C(=O)Nc2ccc3nc(NC(=O)C4CCCN(S(=O)(=O)c5cccc(Br)c5)C4)sc3c2)c1F (stereo unspecified) , thank you.
A. False

Q. Dear all, I need the recorded test outcome for C#C[C@]1(O)CC[C@H]2[C@@H]3CC=C4c5sc(-c6ccc(O)c(O)c6)nc5CC[C@]4(C)[C@H]3CC[C@@]21C , thank you.
A. True

Q. Dear all, I need the recorded test outcome for CC12CC[C@@H]3[C@]4(C)COC(c5cn[nH]c5-c5ccc(Br)cc5)O[C@@H]4CC[C@@]3(C)[C@@H]1CC(C1=CCOC1=O)O2 (stereo partly specified) , thank you.
A. False

Q. Dear all, I need the recorded test outcome for C#CCOc1cc(N(CC)CC)ccc1C(C(=O)NC(C)(C)C)N(C(=O)C1CCc2cc(F)ccc2O1)c1ccc(F)c(Cl)c1 (stereo unspecified) , thank you.
A. False

Q. Dear all, I need the recorded test outcome for COc1ccc(C2=NN(c3ccccc3)C(c3ccc(OC)c(OCc4ccccc4)c3)C2)cc1OC (stereo unspecified) , thank you.
A. False

Q. Dear all, I need the recorded test outcome for COc1ccc(CCC2c3c(cc4c(c3OC)OCO4)CCN2C)cc1 (stereo unspecified) , thank you.
A. True

Q. Dear all, I need the recorded test outcome for O=C(NN1C(=O)/C(=C/C=C/c2ccc([N+](=O)[O-])o2)SC1=S)c1ccccc1O , thank you.
A. True

Q. Dear all, I need the recorded test outcome for Clc1ccc(-c2ccc(OCCCN3CCN(c4ccncc4)CC3)cc2)cc1 , thank you.
A. False
